System: Ser. marcescens IFO 12648
TEST_DESCRIPTION: MIC by agar dilution, Ser. marcescens IFO 12648
Assay type: cell-based
EXPERIMENTAL_PARAMETERS: Serratia marcescens, IFO12648, 17 h; Ser. marcescens IFO 12648; agar dilution, Mueller-Hinton agar; read-out: Minimal Inhibitory Concentration (MIC)
// reported MIC per item

CO/N=C(\C(=O)N[C@@H]1C(=O)N2C(C(=O)[O-])=C(C[n+]3cc(C(=O)O)n4cccc4c3)CS[C@H]12)c1csc(N)n1: ≤ 6 ng/mL

Could you share which MIC value was measured for NCCSc1ccc2c[n+](CC3=C(C(=O)[O-])N4C(=O)C(NC(=O)C(=NOCF)c5csc(N)n5)C4SC3)ccn12 (stereo not shown) ? ≤ 6 ng/mL

Could you share which MIC value was measured for CON=C(C(=O)NC1C(=O)N2C(C(=O)[O-])=C(C[n+]3ccn4cccc4c3)CSC12)c1csc(N)n1 (stereo not shown) ? ≤ 6 ng/mL

Could you share which MIC value was measured for Nc1nc(C(=NOCF)C(=O)NC2C(=O)N3C(C(=O)[O-])=C(C[n+]4ccn5c(CO)ccc5c4)CSC23)cs1 (stereo not shown) ? ≤ 6 ng/mL
